Tested on: NCI-H226 complex tumor spheroids, viability
Assay: Anticancer human tumor NCI-H226 cell line growth inhibition;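 further: spheroids exposed to compound for 7 days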;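 on viability, T/C: 100% = DMSO vehicle control viability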
Settings: second compound 0.00949 µM; first compound 0.3 µM; stronger effect = lower value
Parameter viability, T/C: see the listing below.
I only need the number, in %, no unit after it.

Some compounds with known viability, T/C results, for comparison:
{"compound": "Cc1sc2c(c1C)C(c1ccc(Cl)cc1)=NC(CC(=O)Nc1ccc(O)cc1)c1nnc(C)n1-2 (centres undefined) + CC[C@@]1(O)C(=O)OCc2c1cc1n(c2=O)Cc2cc3c(CN(C)C)c(O)ccc3nc2-1", "observable": "viability, T/C", "number": 61}
{"compound": "Cn1ncnc1[C@H]1c2n[nH]c(=O)c3cc(F)cc(c23)N[C@@H]1c1ccc(F)cc1 + CC[C@@]1(O)C(=O)OCc2c1cc1n(c2=O)Cc2cc3c(CN(C)C)c(O)ccc3nc2-1", "observable": "viability, T/C", "number": 95.2}
{"compound": "CNCc1ccc(-c2cc(-c3nc(-c4ccc(S(=O)(=O)C(C)C)cc4)cnc3N)on2)cc1 + CC[C@@]1(O)C(=O)OCc2c1cc1n(c2=O)Cc2cc3c(CN(C)C)c(O)ccc3nc2-1", "observable": "viability, T/C", "number": 107}

Request: Dear colleague, I am looking for the recorded viability, T/C of the following compound: O=C(c1cc(Cc2n[nH]c(=O)c3ccccc23)ccc1F)N1CCN(C(=O)C2CC2)CC1 + CC[C@@]1(O)C(=O)OCc2c1cc1n(c2=O)Cc2cc3c(CN(C)C)c(O)ccc3nc2-1
Result: 91.2

---

System: NCI-H226 complex tumor spheroids, viability
Assay: Anticancer human tumor NCI-H226 cell line growth inhibition;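 further: spheroids exposed to compound for 7 days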
Conditions: curve of first compound; second compound 100 µM
Recorded IC50, one value per entry.
Your answer is read as µM, so omit the unit and give the number.

Solved entries (count: 2):
{"molecule": "Cc1sc2c(c1C)C(c1ccc(Cl)cc1)=NC(CC(=O)Nc1ccc(O)cc1)c1nnc(C)n1-2 (configuration not stated) + Cn1nnc2c(C(N)=O)ncn2c1=O", "readout_unit": "µM", "number": 1.57}
{"molecule": "COc1ccc([C@@H](O)c2cc(-c3ncnc4cc(N5CCOCC5)ccc34)c(F)cc2Cl)nn1 + Cn1nnc2c(C(N)=O)ncn2c1=O", "readout_unit": "µM", "number": 4.53}

// next item, IC50 requested
Request: IC50 for CNCc1ccc(-c2cc(-c3nc(-c4ccc(S(=O)(=O)C(C)C)cc4)cnc3N)on2)cc1 + Cn1nnc2c(C(N)=O)ncn2c1=O ?
Result: 1.37

---

Tested on: NCI-H226 complex tumor spheroids, viability
Experiment: Anticancer human tumor NCI-H226 cell line growth inhibition;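 further: spheroids exposed to compound for 7 days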;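 on viability, T/C: 100% = DMSO vehicle control viability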
Details: second compound 0.00949 µM; first compound 0.949 µM; stronger effect = lower value
observable: viability, T/C (%)
Express the result in % but write the number alone.

{"compound": "Cn1ncnc1[C@H]1c2n[nH]c(=O)c3cc(F)cc(c23)N[C@@H]1c1ccc(F)cc1 + CC[C@@]1(O)C(=O)OCc2c1cc1n(c2=O)Cc2cc3c(CN(C)C)c(O)ccc3nc2-1", "viability, T/C [%]": 82.6}
{"compound": "CNCc1ccc(-c2cc(-c3nc(-c4ccc(S(=O)(=O)C(C)C)cc4)cnc3N)on2)cc1 + CC[C@@]1(O)C(=O)OCc2c1cc1n(c2=O)Cc2cc3c(CN(C)C)c(O)ccc3nc2-1", "viability, T/C [%]": 87}
{"compound": "O=C(c1cc(Cc2n[nH]c(=O)c3ccccc23)ccc1F)N1CCN(C(=O)C2CC2)CC1 + CC[C@@]1(O)C(=O)OCc2c1cc1n(c2=O)Cc2cc3c(CN(C)C)c(O)ccc3nc2-1", "viability, T/C [%]": 95.9}

We now examine a further compound.
Request: Which viability, T/C value belongs to Cc1sc2c(c1C)C(c1ccc(Cl)cc1)=NC(CC(=O)Nc1ccc(O)cc1)c1nnc(C)n1-2 (centres undefined) + CC[C@@]1(O)C(=O)OCc2c1cc1n(c2=O)Cc2cc3c(CN(C)C)c(O)ccc3nc2-1 ?
Result: 50

---

System: NCI-H226 complex tumor spheroids, viability
Assay: Anticancer human tumor NCI-H226 cell line growth inhibition; active = viability on the fitted dose curve at most 10% of control; inactive = the rest;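 further: spheroids exposed to compound for 7 days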
Settings: second compound 3.16 µM; first compound 3 µM
Choose one outcome from this list and give only that: active, inactive

Use the examples below as a reference point.
{"molecule": "CNCc1ccc(-c2cc(-c3nc(-c4ccc(S(=O)(=O)C(C)C)cc4)cnc3N)on2)cc1 + Cn1nnc2c(C(N)=O)ncn2c1=O", "label": "active"}
{"molecule": "O=C(c1cc(Cc2n[nH]c(=O)c3ccccc23)ccc1F)N1CCN(C(=O)C2CC2)CC1 + Cn1nnc2c(C(N)=O)ncn2c1=O", "label": "inactive"}
{"molecule": "Cc1sc2c(c1C)C(c1ccc(Cl)cc1)=NC(CC(=O)Nc1ccc(O)cc1)c1nnc(C)n1-2 (centres undefined) + Cn1nnc2c(C(N)=O)ncn2c1=O", "label": "inactive"}

Now turn to the next molecule.
Request: Kindly provide the recorded test outcome for the following molecule: Cn1ncnc1[C@H]1c2n[nH]c(=O)c3cc(F)cc(c23)N[C@@H]1c1ccc(F)cc1 + Cn1nnc2c(C(N)=O)ncn2c1=O
Result: inactive

---

System: NCI-H226 complex tumor spheroids, viability
Test: Anticancer human tumor NCI-H226 cell line growth inhibition;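 further: spheroids exposed to compound for 7 days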;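 on viability, T/C: 100% = DMSO vehicle control viability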
Settings: second compound 94.9 pM; first compound 0.316 µM; stronger effect = lower value
A collection of compounds and their measured viability, T/C
Give a bare numeral; the unit % is implied.

Reference set (3 entries):
{"compound": "COc1ccc([C@@H](O)c2cc(-c3ncnc4cc(N5CCOCC5)ccc34)c(F)cc2Cl)nn1 + COc1cc2c(cc1O)CCNC21CSC2c3c(OC(C)=O)c(C)c4c(c3C(COC1=O)N1C(O)C3Cc5cc(C)c(OC)c(O)c5C(C21)N3C)OCO4", "number": 106}
{"compound": "Cc1cc(C)c(CNC(=O)c2cc(-c3ccc(CN4CCOCC4)cc3)cc3c2cnn3C2CCCC2)c(=O)[nH]1 + COc1cc2c(cc1O)CCNC21CSC2c3c(OC(C)=O)c(C)c4c(c3C(COC1=O)N1C(O)C3Cc5cc(C)c(OC)c(O)c5C(C21)N3C)OCO4", "number": 101}
{"compound": "CC(C)n1c(=O)n(C)c2cnc3cc(F)c(-c4ccc(OCCCN5CCCCC5)nc4)cc3c21 + COc1cc2c(cc1O)CCNC21CSC2c3c(OC(C)=O)c(C)c4c(c3C(COC1=O)N1C(O)C3Cc5cc(C)c(OC)c(O)c5C(C21)N3C)OCO4", "number": 112}

Request: Reported viability, T/C for CC1COCCN1c1cc(-c2ccnn2C)c2ccnc(-c3ccn[nH]3)c2n1 (stereo unspecified) + COc1cc2c(cc1O)CCNC21CSC2c3c(OC(C)=O)c(C)c4c(c3C(COC1=O)N1C(O)C3Cc5cc(C)c(OC)c(O)c5C(C21)N3C)OCO4 : what is it?
Result: 80

Request: What about this compound? COc1cc(C)[nH]c(=O)c1CN1CCc2c(Cl)cc(C(OC)C3COC3)c(Cl)c2C1=O (stereo unspecified) + COc1cc2c(cc1O)CCNC21CSC2c3c(OC(C)=O)c(C)c4c(c3C(COC1=O)N1C(O)C3Cc5cc(C)c(OC)c(O)c5C(C21)N3C)OCO4
Result: 125

Request: What would you report for [2H]c1nc(C)nc([2H])c1-c1cc(NC[C@@H](C)c2cccc3c(C(=O)NC)ccnc23)ncn1 + COc1cc2c(cc1O)CCNC21CSC2c3c(OC(C)=O)c(C)c4c(c3C(COC1=O)N1C(O)C3Cc5cc(C)c(OC)c(O)c5C(C21)N3C)OCO4 ?
Result: 100

---

Tested on: NCI-H226 complex tumor spheroids, viability
Assay: Anticancer human tumor NCI-H226 cell line growth inhibition;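 further: spheroids exposed to compound for 7 days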;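 on viability, T/C: 100% = DMSO vehicle control viability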
Settings: second compound 0.00949 µM; first compound 0.0316 µM; stronger effect = lower value
# note: boundary value 90% maps to 0.0; viability, T/C below it maps to 1.0

Request: For this molecule, is viability, T/C lower than 90%? CC1COCCN1c1cc(-c2ccnn2C)c2ccnc(-c3ccn[nH]3)c2n1 (stereo unspecified) + CC[C@@]1(O)C(=O)OCc2c1cc1n(c2=O)Cc2cc3c(CN(C)C)c(O)ccc3nc2-1
Result: 0.0

Request: Also CC(C)n1c(=O)n(C)c2cnc3cc(F)c(-c4ccc(OCCCN5CCCCC5)nc4)cc3c21 + CC[C@@]1(O)C(=O)OCc2c1cc1n(c2=O)Cc2cc3c(CN(C)C)c(O)ccc3nc2-1 , if possible.
Result: 1.0

Request: Also check [2H]c1nc(C)nc([2H])c1-c1cc(NC[C@@H](C)c2cccc3c(C(=O)NC)ccnc23)ncn1 + CC[C@@]1(O)C(=O)OCc2c1cc1n(c2=O)Cc2cc3c(CN(C)C)c(O)ccc3nc2-1
Result: 1.0

Request: What about this molecule? Cc1cc(C)c(CNC(=O)c2cc(-c3ccc(CN4CCOCC4)cc3)cc3c2cnn3C2CCCC2)c(=O)[nH]1 + CC[C@@]1(O)C(=O)OCc2c1cc1n(c2=O)Cc2cc3c(CN(C)C)c(O)ccc3nc2-1
Result: 1.0

Cited source: PubChem BioAssay AID1845210
